assay: A549 NSCLC cell proliferation inhibitors – ATP luminescence, human non-small cell lung line, primary screen (AID 371); details: at 10 µM, active compounds read high;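 also: compound exposure lasted 72 h before the ATP read; 0% = untreated cell signal and 100% = no luminescence left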
The campaign covered roughly 3,300 compounds. About 280 (8.5%) were called active. Only a selection was taken, and actives are over-represented in it overall.
parameter-measured: growth inhibition (%)
The reply should be a number in %, with the unit left off.

The following molecules have reported results that may help.
INSERT INTO measurements (molecule, unit_info, recorded_measurement) VALUES
  ('CC(=O)OC1(c2ccc(C)cc2)CN2CCC1c1ccccc12 (stereo not drawn)', '%', 6.24),
  ('Cc1c(N=Cc2c(O)n(Cc3ccco3)c(=O)[nH]c2=O)c(=O)n(-c2ccccc2)n1C', '%', -0.44),
  ('CCOc1ccc(-n2c(O)c(C=Nc3ccc(N(CC)CC)cc3)c(=O)[nH]c2=O)cc1', '%', 9.98),
  ('O=c1[nH]c(=O)n(C2CCCCC2)c(O)c1C=NCCCn1ccnc1', '%', 3.81),
  ('Cn1c(O)c(C=NCCCNC2CCCCC2)c(=O)n(C)c1=O', '%', 0.52);

Request: Quick one: growth inhibition for O=C(O)CCCc1ccc(N(CCCl)CCCl)cc1 ?
Result: 50.8

Request: May I ask what growth inhibition has been recorded for CCCCCCn1c(O)c(C=NCCCn2ccnc2)c(=O)[nH]c1=O ?
Result: 7.84

Request: Which value of growth inhibition has been reported for Clc1ccc(CSC(Cn2ccnc2)c2ccc(Cl)cc2Cl)cc1 (stereo not drawn) in the records?
Result: 93.2
